target_of_assay: T1, recombinant human IL1RAP (Homo sapiens, UniProt Q9NPH3)
T1 construct: MBP-IL1RAP(S21-T367)-; 8xHis (C); made in house; host or cells: CHO (ExpiCHO transient expression)
procedure_summary: Binding competition binning on Octet
experimental_context: Protein A biosensors
observed_property: competition for binding, bin (2)

[[record]]
molecule = "5G8_18A1: human anti-IL1RAP antibody, VH SEQ ID NO: 1, VL SEQ ID NO: 5 (antibody, V domains shown) VH: QVELQESGPGLVKPSDTLSLTCTVTGGSISTYYWSWIRQPPGKGLEWIGYIFYTGTTNYNPSLKSRVTISVDASKNQFSLKLNSVTAADTAVYYCARDGSLDYWGQGALVTVSS VL: DIQMTQSPSSLSASVGDRVTITCRASQSISNYLNWYQQKPGKAPKLLIFVASLLQSGVPSRFSGSGSGTDFTLTISSLQPEDFATYYCQQSYSTPFTFGPGTKLEIK"
measured_value = "competed with each other"

[[record]]
molecule = "16H2_17D2: human anti-IL1RAP antibody, VH SEQ ID NO: 25, VL SEQ ID NO: 29 (antibody, V domains shown) VH: QVQLVESGGGVVQPGGSLRLSCAASGFTFSSHGMHWVRQAPGKGLEWVAVIWYDGSNKFYTDSVQGRFTISRDNSKNTLNLQMNSLRAEDTAVYYCAREGLRAGYYFDFWGQGTLVTVSS VL: DIQMTQSPSSLSASVGDRVTITCRASQRISFYSNWYQQKPGKAPKLLIYAASSLQSGVPSRFSGSGSGTDFTLTISSLQPEDFATYFCQQSHSTPLTFGGGTKLEIK"
measured_value = "competed with each other"

